- Tested on: A. fumigatus ATCC 46645
- Assay Info: Antifungal susceptibility, broth dilution MIC (CLSI M38-A)
- Type: cell-based
- Conditions: Aspergillus fumigatus, ATCC46645; A. fumigatus ATCC 46645; broth dilution, RPMI 1640 with MOPS, 48 hours; read-out: Activity against organisms (MIC50) Afm01
Readout Kind: MIC50

Molecule	MIC50
COc1ccc(CN2CCN(c3ccc(C(=O)/C=C/c4ccc(OCc5cn(CC(O)(Cn6cncn6)c6ccc(F)cc6F)nn5)cc4)cc3)CC2)cc1 (stereo not shown) [Compound 1B-8]	> 8 µg/mL
COc1ccc(C(=O)/C=C/c2cccs2)cc1 [Compound 10A-2]	> 8 µg/mL
O=C(/C=C/c1cccs1)c1ccc(OCc2cn(CC(O)(Cn3cncn3)c3ccc(F)cc3F)nn2)cc1 (stereo not shown) [Compound 1A-4]	> 8 µg/mL
CCCN1CCN(c2ccc(C(=O)/C=C/c3ccc(OCc4cn(CC(O)(Cn5cncn5)c5ccc(F)cc5F)nn4)cc3)cc2)CC1 (stereo not shown) [Compound 1B-5]	> 4 µg/mL
COc1ccc(C(=O)/C=C/c2ccc(OCc3cn(CC(O)(Cn4cncn4)c4ccc(F)cc4F)nn3)cc2)cc1 (stereo not shown) [Compound 1B-1]	> 4 µg/mL
CCCN1CCN(c2ccc(C(C)=O)cc2)CC1 [Compound 11A-1]	> 128 µg/mL
O=C(/C=C/c1ccc(OCc2cn(CC(O)(Cn3cncn3)c3ccc(F)cc3F)nn2)cc1)c1ccc(OCC(O)(Cn2cncn2)c2ccc(F)cc2F)cc1 (stereo not shown) [Compound 1B-10]	> 2 µg/mL
C=C=CCOc1ccc(/C=C/C(=O)/C=C/c2ccc(OCc3cn(CC(O)(Cn4cncn4)c4ccc(F)cc4F)nn3)cc2)cc1 (stereo not shown) [Compound 1B-9]	> 2 µg/mL
CCCCN1CCN(c2ccc(C(=O)/C=C/c3ccc(OCc4cn(CC(O)(Cn5cncn5)c5ccc(F)cc5F)nn4)cc3)cc2)CC1 (stereo not shown) [Compound 1B-6]	> 4 µg/mL

Next molecule, please.
Value sought: MIC50, system A. fumigatus ATCC 46645, item C/C=C/c1ccc(OCc2cn(CC(O)(Cn3cncn3)c3ccc(F)cc3F)nn2)cc1 (stereo not shown) [Compound 1C-4] . Result: 32 µg/mL
